targetOrSystem: Voltage-dependent L-type calcium channel subunit alpha-1C (Oryctolagus cuniculus, UniProt P15381)
Sequence (P15381 whole entry): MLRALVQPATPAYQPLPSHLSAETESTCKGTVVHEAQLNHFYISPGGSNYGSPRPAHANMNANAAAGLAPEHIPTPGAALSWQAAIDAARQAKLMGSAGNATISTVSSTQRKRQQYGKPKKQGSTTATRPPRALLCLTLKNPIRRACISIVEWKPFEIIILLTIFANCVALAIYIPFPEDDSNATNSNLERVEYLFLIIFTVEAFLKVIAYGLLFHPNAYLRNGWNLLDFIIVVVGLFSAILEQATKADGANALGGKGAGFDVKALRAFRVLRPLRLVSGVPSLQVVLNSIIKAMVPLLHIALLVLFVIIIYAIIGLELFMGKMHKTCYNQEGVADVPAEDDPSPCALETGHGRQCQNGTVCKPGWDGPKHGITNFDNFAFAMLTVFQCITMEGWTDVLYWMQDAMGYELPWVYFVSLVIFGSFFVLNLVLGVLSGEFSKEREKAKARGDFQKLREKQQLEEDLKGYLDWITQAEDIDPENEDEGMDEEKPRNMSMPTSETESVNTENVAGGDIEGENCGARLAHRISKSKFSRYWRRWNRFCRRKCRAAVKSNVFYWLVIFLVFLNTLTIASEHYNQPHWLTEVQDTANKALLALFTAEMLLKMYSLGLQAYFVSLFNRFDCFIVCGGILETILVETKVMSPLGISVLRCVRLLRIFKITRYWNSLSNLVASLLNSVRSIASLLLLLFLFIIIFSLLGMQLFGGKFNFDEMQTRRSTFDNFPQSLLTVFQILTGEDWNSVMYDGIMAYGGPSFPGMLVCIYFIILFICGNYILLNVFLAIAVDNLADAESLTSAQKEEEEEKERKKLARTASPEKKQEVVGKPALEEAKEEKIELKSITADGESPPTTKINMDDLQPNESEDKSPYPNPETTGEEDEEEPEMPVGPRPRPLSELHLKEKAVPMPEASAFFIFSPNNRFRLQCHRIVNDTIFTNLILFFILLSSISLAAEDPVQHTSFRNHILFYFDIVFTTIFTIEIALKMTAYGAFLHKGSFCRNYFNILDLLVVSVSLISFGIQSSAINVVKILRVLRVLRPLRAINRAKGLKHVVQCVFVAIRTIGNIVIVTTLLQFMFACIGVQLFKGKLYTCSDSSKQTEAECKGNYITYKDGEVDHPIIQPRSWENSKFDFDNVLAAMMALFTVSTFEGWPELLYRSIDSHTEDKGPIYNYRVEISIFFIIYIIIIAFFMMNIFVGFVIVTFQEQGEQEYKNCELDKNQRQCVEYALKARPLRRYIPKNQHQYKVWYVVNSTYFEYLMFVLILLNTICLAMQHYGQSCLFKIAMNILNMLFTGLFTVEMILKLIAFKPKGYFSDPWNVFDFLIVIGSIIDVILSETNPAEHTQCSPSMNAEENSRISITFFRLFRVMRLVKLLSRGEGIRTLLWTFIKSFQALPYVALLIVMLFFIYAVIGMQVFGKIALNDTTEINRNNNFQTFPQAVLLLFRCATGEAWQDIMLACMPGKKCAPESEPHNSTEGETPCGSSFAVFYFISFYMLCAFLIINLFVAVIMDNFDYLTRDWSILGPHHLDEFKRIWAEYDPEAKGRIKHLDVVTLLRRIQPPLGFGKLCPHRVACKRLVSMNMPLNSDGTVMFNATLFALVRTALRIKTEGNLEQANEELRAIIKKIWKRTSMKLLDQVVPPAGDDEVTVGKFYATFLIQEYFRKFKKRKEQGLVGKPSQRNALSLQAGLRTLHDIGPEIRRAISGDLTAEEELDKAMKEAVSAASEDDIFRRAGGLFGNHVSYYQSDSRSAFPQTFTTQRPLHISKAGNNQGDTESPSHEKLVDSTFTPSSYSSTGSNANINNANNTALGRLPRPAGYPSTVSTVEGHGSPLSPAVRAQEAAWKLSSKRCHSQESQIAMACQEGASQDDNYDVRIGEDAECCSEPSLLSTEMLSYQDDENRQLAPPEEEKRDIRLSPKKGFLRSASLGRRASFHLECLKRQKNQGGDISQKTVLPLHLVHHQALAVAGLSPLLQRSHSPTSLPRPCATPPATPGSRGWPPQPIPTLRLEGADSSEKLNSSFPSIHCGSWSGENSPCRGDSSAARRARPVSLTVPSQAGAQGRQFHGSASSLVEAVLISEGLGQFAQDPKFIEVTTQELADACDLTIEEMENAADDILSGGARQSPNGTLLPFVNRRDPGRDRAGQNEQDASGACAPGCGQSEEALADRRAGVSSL
measurementNotes: Antagonist activity at rabbit CaV1.2alpha1C transfected in HEK293 cells by FLIPR assay
pIC50: −log10 of the molar value.
Consider the following compounds and their measured pIC50 readings.
propertyName: pIC50

{"compound": "COC(=O)[C@H](Cc1ccccc1)N1C(=O)CC(=O)N(C2CCCC2)C1=O", "propertyName": "pIC50", "reportedRelation": "<", "quantitativeResult": 4.00}
{"compound": "CC(CN1C(=O)CC(=O)N(C2CC3CCC2C3)C1=O)c1cccc(Cl)c1 (mixture of isomers)", "propertyName": "pIC50", "reportedRelation": "=", "quantitativeResult": 5.29}
{"compound": "O=C1CC(=O)N(C2CC3CCC2C3)C(=O)N1CCc1cccc(C(F)(F)F)c1 (racemic)", "propertyName": "pIC50", "reportedRelation": "=", "quantitativeResult": 4.00}
{"compound": "O=C1CC(=O)N(C2CCCC2)C(=O)N1Cc1ccc(Cl)cc1", "propertyName": "pIC50", "reportedRelation": "=", "quantitativeResult": 4.29}
{"compound": "O=C(OCc1ccccc1)N1CC[C@H](N2C(=O)CC(=O)N(CCc3cccc(Cl)c3)C2=O)C1", "propertyName": "pIC50", "reportedRelation": "=", "quantitativeResult": 4.47}

# credit: ChEMBL document CHEMBL2380260
